Source: patent US7138411B2

Reported melting point is given for each of the following molecules.

// solved cases for melting point follow
- molecule: "O=C(O)C1=Cc2cc(Cl)cc(-c3ccco3)c2OC1C(F)(F)F (stereo not shown) [Example 117]"
  measuredQuantity: "melting point"
  result: "171.5 to 173.3 °C"
- molecule: "O=C(O)C1=Cc2cc(C(O)C(F)(F)F)ccc2OC1C(F)(F)F (stereo not shown) [Example 173]"
  measuredQuantity: "melting point"
  result: "114 to 120 °C"
- molecule: "O=C(O)C1=Cc2cc(F)cc(F)c2OC1C(F)(F)F (stereo not shown) [Example 41]"
  measuredQuantity: "melting point"
  result: "207 to 211 °C"
- molecule: "O=C(O)C1=Cc2ccc(Br)cc2OC1C(F)(F)F (stereo not shown) [Example 5]"
  measuredQuantity: "melting point"
  result: "198.4 to 199.5 °C"
- molecule: "O=C(O)C1=Cc2cc(I)ccc2OC1C(F)(F)F (stereo not shown) [Example 24]"
  measuredQuantity: "melting point"
  result: "168 to 170 °C"
- molecule: "CC(C)(C)c1ccc2c(c1)OC(C(F)(F)C(F)(F)F)C(C(=O)O)=C2 (stereo not shown) [Example 111]"
  measuredQuantity: "melting point"
  result: "171 to 173.5 °C"
- molecule: "Cc1cc2c(cc1C)SC(C(F)(F)F)C(C(=O)O)=C2 (stereo not shown) [Example 149]"
  measuredQuantity: "melting point"
  result: "235 to 237 °C"
- molecule: "O=C(O)C1=Cc2ccc(Cl)cc2OC1C(F)(F)F (stereo not shown) [Example 72]"
  measuredQuantity: "melting point"
  result: "175.2 to 177.6 °C"
- molecule: "C#Cc1ccc2c(c1)C=C(C(=O)O)C(C(F)(F)F)O2 (stereo not shown) [Example 139]"
  measuredQuantity: "melting point"
  result: "198 to 200 °C"
- molecule: "O=C(O)C1=Cc2cc(Cl)c(Sc3ccccc3)cc2OC1C(F)(F)F (stereo not shown) [Example 195]"
  measuredQuantity: "melting point"
  result: "271.7 to 274.4 °C"

Hello, please tell me recorded melting point for this one: O=C(O)C1=Cc2cc(Oc3ccc(Cl)cc3)ccc2OC1C(F)(F)F (stereo not shown) [Example 104] 140.5 to 142.5 °C

Hello, please tell me recorded melting point for this one: CS(=O)(=O)c1ccc2c(c1)C=C(C(=O)O)C(C(F)(F)F)O2 (stereo not shown) [Example 56] 208.3 to 212.4 °C

Hello, please tell me recorded melting point for this one: CCN1c2ccc(Cl)cc2C=C(C(=O)O)C1C(F)(F)F (stereo not shown) [Example 171] 201 to 202 °C

Hello, please tell me recorded melting point for this one: O=C(O)C1=Cc2cc(S(=O)(=O)NCCc3ccccc3)ccc2OC1C(F)(F)F (stereo not shown) [Example 71] 187 to 190 °C

Hello, please tell me recorded melting point for this one: O=C(O)C1=Cc2cc(Cl)cc(Br)c2OC1C(F)(F)F (stereo not shown) [Example 15] 227.8 to 228.9 °C

Hello, please tell me recorded melting point for this one: O=C(O)C1=Cc2cc(Cl)c(Oc3ccc(Cl)cc3)cc2OC1C(F)(F)F (stereo not shown) [Example 184] 205.4 to 206.5 °C

Hello, please tell me recorded melting point for this one: O=C(O)C1=Cc2cc(Cl)c(I)cc2OC1C(F)(F)F (stereo not shown) [Example 180] 224.9 to 225.9 °C

Hello, please tell me recorded melting point for this one: CCC1=C(C(=O)O)C(C(F)(F)F)Oc2ccc(Cl)cc21 (stereo not shown) [Example 212] 170.9 to 172.1 °C

Hello, please tell me recorded melting point for this one: O=C(O)C1=Cc2cc(Cl)c(Oc3cccnc3Cl)cc2OC1C(F)(F)F (stereo not shown) [Example 200] 213.4 to 216.2 °C
